# Tested on: MS2 coat protein
# Procedure Text: apparent KD of MS2 coat protein; designed switch direction (-1 OFF switch, 1 ON switch): 1; higher = weaker reporter binding
# Condition: Eterna round: R95; input ligand: microRNA oligo, concentration not stated
Let's look at some sequences and their measured apparent KD of MS2 coat protein.
# value in nM; strip the unit string

# count of solved cases: 4
Recorded result, UAGAGAGGAAGCGAGGAUAUCGUGGGAGGAACAUGAGGAUCACCCAUGUGUGAUGUUGAGAGGGACGAGAAGGCGCGGGAAAUUA [JR_SS2_Sub080] (puzzle: Same State 2) , apparent KD of MS2 coat protein: 160

Recorded result, UUUAGUUGCGGGCAGGAUAUGUAUUAAAAUACAUGAGGAUCACCCAUGUGAGGCCGAAAAGGCCUACAGAAGGGCCAAUCGCGAC [Laonerce - 22] (puzzle: Same State 2) , apparent KD of MS2 coat protein: 49.4

Recorded result, GAAGAACAUGAGGAUCACCCAUGUAGGCGGAAGCUAGGAUAUGCGGGAAAGAAGAGAGAAGCAGAAGGAGUAGGUA [JR_SS1_Sub030] (puzzle: Same State 1) , apparent KD of MS2 coat protein: 28.3

Recorded result, UUUGGGUGGCUGGAGGAUAUCCUGGUUGUUACAUGAGGAUCACCCAUGUGCCGCGCGGUUCGCGAGGAGAAGGCUGGCGGCCGUU (puzzle: Same State 2) , apparent KD of MS2 coat protein: 91.2

More entries:
Recorded result, GUAUCUACAGGUUUCUUUGCUCGUCUGAUACAUGAGGAUCACCCAUGUUAUAGCCCUGUGCUUGCGCAGGGCUGAGG [Sensor for hsa-mir-208a ( MOD of Tearor v.3 )] (puzzle: Sensor for hsa-mir-208a) , apparent KD of MS2 coat protein: 36.6

* * *

# System: MS2 coat protein
# Procedure Text: apparent KD of MS2 coat protein; higher = weaker reporter binding
# Condition: Eterna round: R107; input ligand: none
Let's look at some sequences and their measured apparent KD of MS2 coat protein.
# value in nM; strip the unit string

Recorded result, UUGGGUUUGCGAAGGAGCGGGAAAUAUAUAUAUAUAAUCCUAACAUGAGGAUCACCCAUGUCCCAGGUAGGUCGCGCAGGUUUGG [12.L] , apparent KD of MS2 coat protein: 54.2

Moving on to the next sequence.
Recorded result, GGUUGAUAUAUAUAUAUAUUGAUUACUGAAGGAGCGGGAAAUAACCCAGGUAGGUCGCAGAGAUCCACAUGAGGAUCACCCAUGU [!0.F] , apparent KD of MS2 coat protein: 42.7

* * *

Let's look at some sequences and their measured apparent KD of K4 kissing-loop reporter.
# Tested on: K4 kissing-loop RNA reporter
# Procedure Text: apparent KD of K4 kissing-loop reporter; higher = weaker reporter binding
# Condition: Eterna round: R107; input ligand: FMN 200 uM
# value in µM; strip the unit string

Recorded result, AUUUUGGUUUAGAGUGAUGUUCCUUGUAUUCGAGGACCGGUACGGCCGCCACUCGAAUAGAAAAGAAAAGAAAUGAGUGAUGUUU [BDazzled - #4 SS Tryptophan A] , apparent KD of K4 kissing-loop reporter: 0.519

Recorded result, UAAUUUAUGUCUUUAAUAUAAUAAUCAGAUACCAGUGAUUUAUGACACCCUUGGCAGCUGUAUAGAGUGAUGUUCUUAUGCUUAA [JR_ExcTheophyA_Sub011] , apparent KD of K4 kissing-loop reporter: 0.247

Recorded result, CCUGUGUGUGAAGGAUAUAUUUCGCAUUAAAACUAGUGAUGUUGGUAAAUGGCACAAUCCGUAGCAAUAGAAGGUCACUCCGGAA [theeternabot_sameState_KL_FMN_B_22] , apparent KD of K4 kissing-loop reporter: 0.499

Recorded result, `GCCGUAGAUGGAAGGAGCGUGAAUGGCCUCUAUCCAAAGUGAUGUUUUGUUGAAGACUGUUCACAGGUAGGUCGCCAUCUACGGC` , apparent KD of K4 kissing-loop reporter: 0.165

Recorded result, GUUGAUCAUGGAAGGAGCGCCCAUUGUCGACACGAGUGAUGUUCGUGUCGUUGAUUACGAGGGCAGGUAGGUCGCCGUGUGCUUU [Rabele] , apparent KD of K4 kissing-loop reporter: 0.149

Recorded result, CCGUCGACAAGCGCCAUCGUCUACGUCAAUAAGGAUAUCAUCAAGGUGAGAAGGUAUGACAACCGGAGUGAUGUUCCAGGGCGAA [theeternabot_sameState_KL_FMN_A_5] , apparent KD of K4 kissing-loop reporter: 0.506

Recorded result, `UGACUGGACUGAAGGAGCGCUGAACUCCUAGUGAUGUUAGGACAACGAGACAAAGUCUCGAAGCAGGUAGGUCGCAGUCUAGUCU` , apparent KD of K4 kissing-loop reporter: 0.154

Recorded result, `UCCUAGGCUCGAAAGAGCCUAGGAUUUACUCAGGAUAUCCGGAAACGGAGAAGGGAGUAACUAGUGAUGUUAGGGAUUCCCUAUU` , apparent KD of K4 kissing-loop reporter: 0.552

Recorded result, CGUAGCAGACGAAGGAGCGGCUACCUGAAUCAGGGUGAUGCCUGAGUGAUGUUCAGGUAAAGCCAGGUAGGUCGCGUCUGCUACG [Arg B Ex t9a] , apparent KD of K4 kissing-loop reporter: 0.201

Recorded result, CGGGUACGUCAAGGAUAUAGGCAUGACGUAGUGCAGUGAUGUUGCUCGAGUCUCUUCAACUGAGGACUAGAAGGUGAUCGUAACA [theeternabot_sameState_KL_FMN_B_15] , apparent KD of K4 kissing-loop reporter: 0.491

Recorded result, UUCUACGAGUGAUGUUCGUAGUGUAUUCGCUAGGAUAUCGUUUUUUCGAGAAGGAGUGAUGAAGUGAUACGAAAGUAUCGCUUCU [FMN A 14] , apparent KD of K4 kissing-loop reporter: 0.223

Recorded result, CCAAACAGUUACGAUACCAGUCUAAUAUAUUUGAUCAAAACCCUCGCCGAGUGAUGUUCGGACCCUUGGCAGCGUCUGGGACAGG [zzbtmullin] , apparent KD of K4 kissing-loop reporter: 0.479

* * *

Let's look at some sequences and their measured apparent KD of K4 kissing-loop reporter.
# System: K4 kissing-loop RNA reporter;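 further: bound reporter read as fluorescence of individual clusters on recovered sequencing chips by microscopy, with normalized cluster intensities fitted with a binding model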
# Procedure Text: apparent KD of K4 kissing-loop reporter; higher = weaker reporter binding
# Condition: Eterna round: R107; input ligand: theophylline 20 uM
# value in nM; strip the unit string

Recorded result, AUACGUUUAAGUGAUACCAGACAUGUGAGUGAUGUUUACAAAUAAAUUAAAUUUUUAGCUGUCCCUUGGCAGCACAGUUUAUUUA [JR_ExcTheophyB_Sub002] , apparent KD of K4 kissing-loop reporter: 610

Recorded result, UGUCUGAUGGAAACAUCGGACUUUACUGAUACCAGUAUCGAUAGAUACCCUUGGCAGCAGAAUCAGUAAUAACGAGUGAUGUUCG [Ex Theophylline A K4 3] , apparent KD of K4 kissing-loop reporter: 317

More entries:
Recorded result, AAGGUAUCUAGAUGCUAGCAACAACUAGAUACCAGCAUCGAAAGAUGCCCUUGGCAGCUAGCAGUGAUGUUGCUAGCAAUAAGAA [Design4] , apparent KD of K4 kissing-loop reporter: 158

* * *

# Test system: MS2 coat protein
# Procedure Text: apparent KD of MS2 coat protein; designed switch direction (-1 OFF switch, 1 ON switch): -1; higher = weaker reporter binding
# Condition: input ligand: FMN 200 uM
Classification field: enter y for apparent KD of MS2 coat protein values not below 100 nM, n for values below it.

Example entries begin here.
Is reported apparent KD of MS2 coat protein greater than or equal to 100 nM here: AGUGUGUGGCAGGAUAUUCUAAUCUUUAGGAGGGAAGAAGGGUCUACAUGAGGAUCACCCAUGUAAGCGGUUGA [Ex6 #40] (Eterna round: R97, puzzle: Exclusion 6)
y

Is reported apparent KD of MS2 coat protein greater than or equal to 100 nM here: UGGUGUUACGUAGGAUAUUGUCAACAGGCAGUAGGAUAUGCGAAAGCAGAAGGACCGCCAACAGGCGAGAAGGACGGGUUACCU [pwkr exNG2 2xF7 2xFMN.8] (Eterna round: R96, puzzle: Exclusion NG 2)
y

Is reported apparent KD of MS2 coat protein greater than or equal to 100 nM here: GUUCUGUCAGGAUAUCAAUCCGCCUGUGAUACGCAGGCGGCUGAGAAGGGACAUGAGGAUCACCCAUGUAAAGA [jl-ex4-4.23 ViennaUCT mod] (Eterna round: R97, puzzle: Exclusion 4)
n

Next up:
Is reported apparent KD of MS2 coat protein greater than or equal to 100 nM here: UCUCGCAGGCAAGGAUAUCCUACAUUGUUCUGGCCCGGGCAUGUUACAUGAGGAUCACCCAUGUGGGAGAAGGUGCGCCAGGGC [Design 34] (Eterna round: R96, puzzle: Exclusion NG 2)
n
